- assay system: T1, human Activin A (R&D Systems) (human, UniProt P08476 311-426)
- T1 sequence (looked up): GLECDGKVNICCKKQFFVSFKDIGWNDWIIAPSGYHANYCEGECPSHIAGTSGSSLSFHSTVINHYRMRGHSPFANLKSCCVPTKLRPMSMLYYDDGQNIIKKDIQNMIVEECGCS
- assay method text: cell-based or functional assay
quantity kind: ARE-luciferase IC50 (nM)
Field: numeric (nM). Do not append units.

Given item 2525_D02 (designed binder) MGVSDVPRDLEVVAATPTSLLISWTLPHAGRAHYYRITYGETGGNSPVQEFTVPGRGVTATISGLKPGVDYTITVYAVTVTTTSVILYKPISINYRTEIDKPSQHHHHHH , the value recorded as its ARE-luciferase IC50 is 345

Lab note: measured ARE-luciferase IC50 of ATI-1277 [N-ethylmaleimide] (designed binder, N-ethylmaleimide on the Cys of the EGSGC tail, cysteine mutant of 2525_D05) MGVSDVPRDLEVVAATPTSLLISWSLPYAGHLNYYRITYGETGGNSPVQEFTVPGRGVTATISGLKPGVDYTITVYAVTLTKSQLIHYMPISINYRTEGSGCHHHHHH was 2000
